molecular target: NDM-1 (Klebsiella pneumoniae, UniProt C7C422); experiment: Inhibition of NDM-1 catalyzed meropenem hydrolysis; assay type: biochemical
Sequence (C7C422 29-270 limits assumed): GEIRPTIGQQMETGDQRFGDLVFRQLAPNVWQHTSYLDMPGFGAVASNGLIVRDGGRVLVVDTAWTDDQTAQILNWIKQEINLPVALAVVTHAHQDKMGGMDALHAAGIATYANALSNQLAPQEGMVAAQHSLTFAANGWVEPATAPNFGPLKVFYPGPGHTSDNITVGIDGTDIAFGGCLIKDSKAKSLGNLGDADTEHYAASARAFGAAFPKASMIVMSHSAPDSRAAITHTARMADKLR
READOUT KIND: IC50 (nM)

1. O=C(O)c1cc(-c2ccc(Cl)cc2)cc(CP(=O)(O)O)n1 [Compound 18k] ... 400
2. O=C(O)c1cc(-c2cccc(Cl)c2)cc(CP(=O)(O)O)n1 [Compound 18l] ... 1290
3. COc1cccc(-c2cc(CP(=O)(O)O)nc(C(=O)O)c2)c1 [Compound 18c] ... 420

---

target: NDM-1 (Klebsiella pneumoniae)
pKi: −log10 of the molar value.
READOUT KIND: pKi

1) O=C(O)c1cccc(-c2nnn[nH]2)n1 [Compound 4, 6-(1H-Tetrazol-5-yl)picolinic acid] ... 5.66

---

target: NDM-1 (Klebsiella pneumoniae); test: Inhibition of NDM-1 catalyzed meropenem hydrolysis; assay type: biochemical
Reported IC50 values for the following molecules.
READOUT KIND: IC50 (nM)

1) Nc1cccc(-c2cc(CP(=O)(O)O)nc(C(=O)O)c2)c1 [Compound 18i] ... 400
2) O=C(O)Cc1cccc(C(=O)O)n1 ... 7700
3) Nc1ccccc1-c1cc(CP(=O)(O)O)nc(C(=O)O)c1 [Compound 18j] ... 240
4) Nc1ccc(-c2cc(CP(=O)(O)O)nc(C(=O)O)c2)cc1 [Compound 18h] ... 300
5) O=C(O)c1cc(-c2ccccc2Cl)cc(CP(=O)(O)O)n1 [Compound 18m] ... 950
6) O=C(O)c1cc(-c2ccccc2O)cc(CP(=O)(O)O)n1 [Compound 18g] ... 280
7) O=C(O)c1cccc(-c2nnn[nH]2)n1 ... 7000

---

target: NDM-1 (Klebsiella pneumoniae); test: Inhibition of NDM-1 catalyzed meropenem hydrolysis; assay type: biochemical
READOUT KIND: IC50 (nM)

1) COc1ccccc1-c1cc(CP(=O)(O)O)nc(C(=O)O)c1 [Compound 18d] ... 300
2) O=C(O)c1cc(-c2ccc(O)cc2)cc(CP(=O)(O)O)n1 [Compound 18e] ... 480

---

Recorded below: pIC50, system VIM-2 (Escherichia coli).
pIC50: −log10 of the molar value.
READOUT KIND: pIC50

1. O=C(O)c1cccc(CP(=O)(O)O)n1 [Compound 2, 6-(Phosphonomethyl)picolinic acid] ... 6.21
2. O=C(O)c1cccc(P(=O)(O)O)n1 [Compound 1, 6-Phosphonopicolinic acid] ... 6.07
3. O=C(O)Cc1cccc(C(=O)O)n1 [Compound 3, 6-(Carboxymethyl)picolinic acid] ... 4.46
4. O=C(O)c1cccc(-c2nnn[nH]2)n1 [Compound 4, 6-(1H-Tetrazol-5-yl)picolinic acid] ... 4.57
5. O=C(O)c1cccc(C(=O)O)n1 [DPA, dipicolinic acid, reference compound] ... 5.63

---

molecular target: NDM-1 (Klebsiella pneumoniae, UniProt C7C422); test: Inhibition of NDM-1 catalyzed meropenem hydrolysis; type: biochemical
READOUT KIND: IC50 (nM)

1. COc1ccc(-c2cc(CP(=O)(O)O)nc(C(=O)O)c2)cc1 [Compound 18b] ... 200
2. O=C(O)c1cc(-c2ccccc2)cc(CP(=O)(O)O)n1 [Compound 18a] ... 410
3. O=C(O)c1cc(-c2cccc(O)c2)cc(CP(=O)(O)O)n1 [Compound 18f] ... 280

---

target: UniProt:C7C422; experiment: Inhibition of NDM-1 catalyzed Fluorocillin hydrolysis; type: biochemical
pIC50: −log10 of the molar value.
READOUT KIND: pIC50

1) O=C(O)c1cccc(P(=O)(O)O)n1 ... 7.19
2) O=C(O)c1cccc(C(=O)O)n1 [DPA, dipicolinic acid, reference compound] ... 6.48
3) O=C(O)c1cccc(CP(=O)(O)O)n1 ... 7.17
4) O=C(O)c1cccc(-c2nnn[nH]2)n1 ... 5.66
5) O=C(O)Cc1cccc(C(=O)O)n1 ... 5.69

---

biological target: IMP-1 (Serratia marcescens)
Sequence (P52699 19-246, species assumed): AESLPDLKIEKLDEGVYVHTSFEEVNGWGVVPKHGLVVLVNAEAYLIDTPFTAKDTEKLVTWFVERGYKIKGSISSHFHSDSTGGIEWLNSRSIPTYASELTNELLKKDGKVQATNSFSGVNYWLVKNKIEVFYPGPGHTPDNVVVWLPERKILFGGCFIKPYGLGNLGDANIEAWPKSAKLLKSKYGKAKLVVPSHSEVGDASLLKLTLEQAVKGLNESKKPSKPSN
pIC50: −log10 of the molar value.
READOUT KIND: pIC50

1. O=C(O)c1cccc(-c2nnn[nH]2)n1 ... 4.66
2. O=C(O)c1cccc(CP(=O)(O)O)n1 ... 6.20
3. O=C(O)c1cccc(P(=O)(O)O)n1 ... 6.07
4. O=C(O)Cc1cccc(C(=O)O)n1 ... 4.23
